Biological target: T1, human GIP receptor (human) (UniProt P48546)
T1 sequence (looked up): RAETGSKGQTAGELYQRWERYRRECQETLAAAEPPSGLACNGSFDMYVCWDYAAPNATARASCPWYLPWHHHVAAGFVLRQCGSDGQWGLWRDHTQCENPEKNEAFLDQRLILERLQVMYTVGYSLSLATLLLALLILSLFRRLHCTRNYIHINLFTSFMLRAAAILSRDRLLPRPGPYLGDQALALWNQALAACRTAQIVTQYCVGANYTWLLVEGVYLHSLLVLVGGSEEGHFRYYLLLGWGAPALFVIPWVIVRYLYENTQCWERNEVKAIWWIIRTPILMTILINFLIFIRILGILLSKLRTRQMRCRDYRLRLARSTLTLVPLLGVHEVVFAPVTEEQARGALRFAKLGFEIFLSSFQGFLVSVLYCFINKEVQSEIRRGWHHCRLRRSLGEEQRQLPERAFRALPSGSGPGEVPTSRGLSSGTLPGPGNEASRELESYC
Assay: cell-based or functional assay
Non-standard residues stand in square brackets, D forms with d. No end group written: not given here. Phe(4-CN) = N#Cc1ccc(C[C@H](N)C(=O)O)cc1; αMePhe(2-F) = C[C@](N)(Cc1ccccc1F)C(=O)O; Aib = CC(C)(N)C(=O)O
The following binders are shown together with reported cAMP Rel EC50 (1% HSA) values.
Numeric only. Scale: nM

>  <BINDER>
YXQGTXTSDXXIXLDXKAAXEFIEXLIEGGPSSGAPPPSGTEE (synthetic construct; SITE 2: note = 2-Aminoisobutyric Acid; SITE 6: note = alpha-methyl-2-fluoro-L-phenylalanine; SITE 10: note = 3-(4-Pyridyl)-L-alanine; SITE 11: note = alpha-methyl-L-serine; SITE 13: note = alpha-methyl-leucine; SITE 16: note = L-ornithine; SITE 17: note = Lysine is chemically mo) [Example 725]

>  <QUANTITY NAME>
cAMP Rel EC50 (1% HSA)

>  <OBSERVED MEASUREMENT>
1.39

$$$$
>  <BINDER>
YXQGTXTSDXXIXLDXKAAXEFIEXLIEGGPSSGEPPPSGSE (synthetic construct; SITE 2: note = 2-Aminoisobutyric Acid; SITE 6: note = alpha-methyl-2-fluoro-L-phenylalanine; SITE 10: note = 3-(4-Pyridyl)-L-alanine; SITE 11: note = alpha-methyl-L-serine; SITE 13: note = alpha-methyl-leucine; SITE 16: note = L-ornithine; SITE 17: note = Lysine is chemically mo) [Example 720]

>  <QUANTITY NAME>
cAMP Rel EC50 (1% HSA)

>  <OBSERVED MEASUREMENT>
1.02

$$$$

// sample Y[Aib]QGT[αMePhe(2-F)]TSD[Phe(4-CN)]SILLDKQAQKAFIQYLLEGGPSSGEPPPSEG-NH2 (not fully specified (residue 20)) [Example 341] , its cAMP Rel EC50 (1% HSA) was 49.6
